assay: Acute toxicity in mice after oral or intravenous administration; settings: mouse, in vivo, intravenous, observation period 14 days
readoutType: LD50 at 336 h

Q) Give the measured LD50 at 336 h of CCN1CCc2sc3nc(N)sc3c2CC1.Cl.Cl [A] .
A) 34 mg/kg
